Target: NaV1.7 (Homo sapiens)
Construct: expression vector containing the full-length cDNA coding for the desired human sodium channel α-subunit
Experiment: Patch voltage clamp electrophysiology assay (EP), NaV1.7 in HEK-293 cells
Details: HEK-293, β1 coexpressed, held at -60 mV (inactivated state)
pIC50: −log10 of the molar value.
If the reported pIC50 equals or exceeds 7, assign 1.0. If not, assign 0.0.

Cc1nn(-c2cnc(OCC(C)C)c(Cl)c2)c2cc(F)c(C(=O)NS(C)(=O)=O)cc12: 1.0
Cc1nn(C23CC4CC(CC(C4)C2)C3)c2cc(F)c(C(=O)NS(C)(=O)=O)cc12: 0.0
Cc1nn(C2CCN([C@H](C)c3cc(Cl)cc(Cl)c3)CC2)c2cc(F)c(C(=O)NS(=O)(=O)C3CC3)cc12: 1.0

Exam item: Is pIC50 at least 7? Consider Cc1nn(C2CCN(c3ccc(Cl)c(C(F)(F)F)n3)CC2)c2cc(F)c(C(=O)NS(=O)(=O)C3CC3)cc12 [Example 13, 2,2,2-trifluoroacetate]
Marked response: 0.0

Exam item: Would you mind doing Cc1nn(C2CCN(Cc3cc(C(F)(F)F)cc(Cl)c3F)CC2)c2cc(F)c(C(=O)NS(=O)(=O)N3CCC3)cc12 [Example 3, 2,2,2-trifluoroacetate] as well?
Marked response: 0.0

Exam item: Would you mind doing "Cc1nn(C2CCCCC2)c2cc(F)c(C(=O)NS(=O)(=O)N3CCC3)cc12" as well?
Marked response: 0.0

---

Measured IC50 of individual entries
Molecular target: NaV1.5 (Homo sapiens)
Construct: expression vector containing the full-length cDNA coding for the desired human sodium channel α-subunit; expressed in transfected cells; host or cells: HEK-293
Assay: Patch voltage clamp electrophysiology assay (EP), NaV1.5 in HEK-293 cells
Type: cell-based
Settings: HEK-293, β1 coexpressed, held at -60 mV (inactivated state)
Lab book: enter the figure in nM, no units written.

Cc1nn(C2CCN(Cc3cc(OC(F)(F)F)ccc3Br)CC2)c2cc(F)c(C(=O)NS(=O)(=O)C3CC3)cc12 [Example 7, 2,2,2-trifluoroacetate]: 630
Cc1nn(C2CCN(c3ccc(Cl)c(C(F)(F)F)n3)CC2)c2cc(F)c(C(=O)NS(=O)(=O)C3CC3)cc12 [Example 13, 2,2,2-trifluoroacetate]: 2400
Cc1nn(C2CCN(Cc3cc(Cl)cc(Cl)c3)CC2)c2cc(F)c(C(=O)NS(=O)(=O)C3CC3)cc12 [Example 6, 2,2,2-trifluoroacetate]: 7000

Shifting focus to the compound that follows.
Exam item: Returns the measured IC50 for the input compound. Input: Cc1nn([C@@H]2CCN(Cc3cc(Cl)cc(OC(F)(F)F)c3)C2)c2cc(F)c(C(=O)NS(=O)(=O)C3CC3)cc12 [Example 11, 2,2,2-trifluoroacetate]
Marked response: 800

---

Molecular target: hNav1.7 (Homo sapiens)
Sequence (Q15858 1-1977 isoform Q15858-3): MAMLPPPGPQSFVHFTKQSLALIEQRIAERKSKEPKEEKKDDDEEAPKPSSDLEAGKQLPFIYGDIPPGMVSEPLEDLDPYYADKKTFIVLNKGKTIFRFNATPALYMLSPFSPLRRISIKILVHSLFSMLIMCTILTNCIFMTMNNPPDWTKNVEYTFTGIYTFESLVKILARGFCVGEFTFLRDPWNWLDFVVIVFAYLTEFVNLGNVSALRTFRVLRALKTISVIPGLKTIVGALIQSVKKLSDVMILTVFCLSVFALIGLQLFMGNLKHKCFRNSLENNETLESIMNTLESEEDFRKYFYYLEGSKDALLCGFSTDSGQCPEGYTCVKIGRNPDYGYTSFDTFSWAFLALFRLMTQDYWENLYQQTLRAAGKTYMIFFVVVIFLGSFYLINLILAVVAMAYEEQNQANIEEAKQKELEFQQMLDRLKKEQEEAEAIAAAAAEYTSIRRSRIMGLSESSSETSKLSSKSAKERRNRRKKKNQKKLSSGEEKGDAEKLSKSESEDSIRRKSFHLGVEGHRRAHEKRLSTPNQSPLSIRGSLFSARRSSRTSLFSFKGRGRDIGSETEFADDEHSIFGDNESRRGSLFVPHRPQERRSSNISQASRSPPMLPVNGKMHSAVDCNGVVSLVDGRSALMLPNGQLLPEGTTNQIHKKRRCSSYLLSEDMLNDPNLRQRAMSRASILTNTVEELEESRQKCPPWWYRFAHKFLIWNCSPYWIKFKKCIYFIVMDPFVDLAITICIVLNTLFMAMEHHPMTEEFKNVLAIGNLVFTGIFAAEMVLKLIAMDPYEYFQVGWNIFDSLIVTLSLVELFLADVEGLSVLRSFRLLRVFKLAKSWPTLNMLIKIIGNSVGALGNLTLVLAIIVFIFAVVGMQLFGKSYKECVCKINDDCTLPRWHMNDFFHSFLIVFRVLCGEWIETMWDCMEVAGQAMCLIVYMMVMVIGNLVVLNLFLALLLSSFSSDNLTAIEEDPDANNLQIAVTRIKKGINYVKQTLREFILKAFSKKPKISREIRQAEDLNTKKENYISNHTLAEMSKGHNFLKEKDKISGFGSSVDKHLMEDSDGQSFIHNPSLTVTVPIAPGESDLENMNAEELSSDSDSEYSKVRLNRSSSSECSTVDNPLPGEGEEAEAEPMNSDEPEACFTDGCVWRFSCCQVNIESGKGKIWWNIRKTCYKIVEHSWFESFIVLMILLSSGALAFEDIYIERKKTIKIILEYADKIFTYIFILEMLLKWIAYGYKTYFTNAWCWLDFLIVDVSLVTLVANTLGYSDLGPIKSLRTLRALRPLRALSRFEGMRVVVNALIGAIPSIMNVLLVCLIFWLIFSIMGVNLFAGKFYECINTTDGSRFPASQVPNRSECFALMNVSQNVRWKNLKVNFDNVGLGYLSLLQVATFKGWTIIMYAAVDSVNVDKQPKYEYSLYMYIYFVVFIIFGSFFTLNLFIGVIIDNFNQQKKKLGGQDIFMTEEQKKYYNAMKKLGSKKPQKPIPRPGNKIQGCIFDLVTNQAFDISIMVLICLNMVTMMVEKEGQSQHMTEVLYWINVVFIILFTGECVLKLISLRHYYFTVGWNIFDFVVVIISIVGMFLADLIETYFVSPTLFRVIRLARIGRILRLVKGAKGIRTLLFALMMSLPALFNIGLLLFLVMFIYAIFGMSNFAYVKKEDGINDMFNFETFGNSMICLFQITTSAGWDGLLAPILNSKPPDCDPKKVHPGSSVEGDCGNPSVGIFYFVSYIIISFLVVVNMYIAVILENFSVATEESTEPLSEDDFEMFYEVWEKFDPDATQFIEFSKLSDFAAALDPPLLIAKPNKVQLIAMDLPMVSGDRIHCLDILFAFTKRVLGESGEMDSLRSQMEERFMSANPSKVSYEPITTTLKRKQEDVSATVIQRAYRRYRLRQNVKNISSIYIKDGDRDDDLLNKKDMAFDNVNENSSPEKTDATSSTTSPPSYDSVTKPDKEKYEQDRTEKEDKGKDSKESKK
Sequence (Q07699 19-218 partner): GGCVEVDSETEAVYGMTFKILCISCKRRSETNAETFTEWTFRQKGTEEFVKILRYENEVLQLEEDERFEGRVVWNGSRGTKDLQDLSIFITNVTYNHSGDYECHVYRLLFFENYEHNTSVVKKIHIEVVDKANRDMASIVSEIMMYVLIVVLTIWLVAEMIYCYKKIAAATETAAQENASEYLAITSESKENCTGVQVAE
Test: Tritiated sulfonamide competitive binding to membranes from cells expressing hNav1.7 and the β1 subunit (LBA)
Conditions: competition with 100 pM [3H]compound, 18 h, room temperature; read-out: Nav1.7 (LBA)
Where a name gives a salt, the structure may show the parent alone.
measurement_name: IC50 (nM)
Lab book: enter the figure in nM, no units written.

In the examples that follow, each entry is paired with its recorded IC50.
Cc1nn([C@@H]2CCN(Cc3ccc(Cl)cc3C(F)(F)F)C2)c2cc(F)c(C(=O)NS(=O)(=O)C3CC3)cc12 [Example 20, trifluoroacetic acid salt]: 10
Cc1nn(C2CCN(Cc3cc(Cl)cc(OC(F)(F)F)c3)CC2)c2cc(F)c(C(=O)NS(=O)(=O)C3CC3)cc12: 6
Cc1nn(C2CCC(C)CC2)c2cc(F)c(C(=O)NS(C)(=O)=O)cc12 (stereo not shown): 340
Cc1nn([C@@H]2CCN(Cc3cc(Cl)ccc3C(F)(F)F)C2)c2cc(F)c(C(=O)NS(=O)(=O)C3CC3)cc12 [Example 12, 2,2,2-trifluoroacetate]: 5
Cc1nn(C2CCC(C(C)(C)C)CC2)c2cc(F)c(C(=O)NS(=O)(=O)N3CCC3)cc12 (stereo not shown): 23
Cc1nn(C2CCN(Cc3cc(Cl)cc(OC(F)(F)F)c3)CC2)c2cc(F)c(C(=O)NS(C)(=O)=O)cc12 [Example 4, 2,2,2-trifluoroacetate]: 24
Cc1nn([C@@H]2CCN(Cc3cc(Cl)cc(OC(F)(F)F)c3)C2)c2cc(F)c(C(=O)NS(=O)(=O)C3CC3)cc12 [Example 11, 2,2,2-trifluoroacetate]: 13
Cc1nn(C2CCC(C(C)C)CC2)c2cc(F)c(C(=O)NS(=O)(=O)N3CCC3)cc12 (stereo not shown): 25
Cc1nn(C2CCN(Cc3cc(Cl)cc(Cl)c3)CC2)c2cc(F)c(C(=O)NS(=O)(=O)C3CC3)cc12 [Example 6, 2,2,2-trifluoroacetate]: 14
Cc1nn(C2CCN(Cc3cc(Cl)ccc3C(F)(F)F)CC2)c2cc(F)c(C(=O)NS(=O)(=O)C3CC3)cc12: 5

Exam item: Returns the measured IC50 for the input compound. Input: Cc1nn([C@@H]2CCN([C@@H](C)c3cc(Cl)cc(Cl)c3)C2)c2cc(F)c(C(=O)NS(C)(=O)=O)cc12 [Example 18, trifluoroacetic acid salt]
Marked response: 40

Exam item: Would you mind doing "Cc1nn(CC23CC4CC(CC(C4)C2)C3)c2cc(F)c(C(=O)N[S@TB3](=O)(=O)N3CCC3)cc12" as well?
Marked response: 300

Exam item: Would you mind doing Cc1nn(C2CCN(c3ccc(Cl)c(C(F)(F)F)n3)CC2)c2cc(F)c(C(=O)NS(=O)(=O)C3CC3)cc12 [Example 13, 2,2,2-trifluoroacetate] as well?
Marked response: 15

---

Target: NaV1.5 (Homo sapiens, UniProt Q14524)
Construct: expression vector containing the full-length cDNA coding for the desired human sodium channel α-subunit; expressed in transfected cells; host or cells: HEK-293
Sequence (Q14524 whole entry): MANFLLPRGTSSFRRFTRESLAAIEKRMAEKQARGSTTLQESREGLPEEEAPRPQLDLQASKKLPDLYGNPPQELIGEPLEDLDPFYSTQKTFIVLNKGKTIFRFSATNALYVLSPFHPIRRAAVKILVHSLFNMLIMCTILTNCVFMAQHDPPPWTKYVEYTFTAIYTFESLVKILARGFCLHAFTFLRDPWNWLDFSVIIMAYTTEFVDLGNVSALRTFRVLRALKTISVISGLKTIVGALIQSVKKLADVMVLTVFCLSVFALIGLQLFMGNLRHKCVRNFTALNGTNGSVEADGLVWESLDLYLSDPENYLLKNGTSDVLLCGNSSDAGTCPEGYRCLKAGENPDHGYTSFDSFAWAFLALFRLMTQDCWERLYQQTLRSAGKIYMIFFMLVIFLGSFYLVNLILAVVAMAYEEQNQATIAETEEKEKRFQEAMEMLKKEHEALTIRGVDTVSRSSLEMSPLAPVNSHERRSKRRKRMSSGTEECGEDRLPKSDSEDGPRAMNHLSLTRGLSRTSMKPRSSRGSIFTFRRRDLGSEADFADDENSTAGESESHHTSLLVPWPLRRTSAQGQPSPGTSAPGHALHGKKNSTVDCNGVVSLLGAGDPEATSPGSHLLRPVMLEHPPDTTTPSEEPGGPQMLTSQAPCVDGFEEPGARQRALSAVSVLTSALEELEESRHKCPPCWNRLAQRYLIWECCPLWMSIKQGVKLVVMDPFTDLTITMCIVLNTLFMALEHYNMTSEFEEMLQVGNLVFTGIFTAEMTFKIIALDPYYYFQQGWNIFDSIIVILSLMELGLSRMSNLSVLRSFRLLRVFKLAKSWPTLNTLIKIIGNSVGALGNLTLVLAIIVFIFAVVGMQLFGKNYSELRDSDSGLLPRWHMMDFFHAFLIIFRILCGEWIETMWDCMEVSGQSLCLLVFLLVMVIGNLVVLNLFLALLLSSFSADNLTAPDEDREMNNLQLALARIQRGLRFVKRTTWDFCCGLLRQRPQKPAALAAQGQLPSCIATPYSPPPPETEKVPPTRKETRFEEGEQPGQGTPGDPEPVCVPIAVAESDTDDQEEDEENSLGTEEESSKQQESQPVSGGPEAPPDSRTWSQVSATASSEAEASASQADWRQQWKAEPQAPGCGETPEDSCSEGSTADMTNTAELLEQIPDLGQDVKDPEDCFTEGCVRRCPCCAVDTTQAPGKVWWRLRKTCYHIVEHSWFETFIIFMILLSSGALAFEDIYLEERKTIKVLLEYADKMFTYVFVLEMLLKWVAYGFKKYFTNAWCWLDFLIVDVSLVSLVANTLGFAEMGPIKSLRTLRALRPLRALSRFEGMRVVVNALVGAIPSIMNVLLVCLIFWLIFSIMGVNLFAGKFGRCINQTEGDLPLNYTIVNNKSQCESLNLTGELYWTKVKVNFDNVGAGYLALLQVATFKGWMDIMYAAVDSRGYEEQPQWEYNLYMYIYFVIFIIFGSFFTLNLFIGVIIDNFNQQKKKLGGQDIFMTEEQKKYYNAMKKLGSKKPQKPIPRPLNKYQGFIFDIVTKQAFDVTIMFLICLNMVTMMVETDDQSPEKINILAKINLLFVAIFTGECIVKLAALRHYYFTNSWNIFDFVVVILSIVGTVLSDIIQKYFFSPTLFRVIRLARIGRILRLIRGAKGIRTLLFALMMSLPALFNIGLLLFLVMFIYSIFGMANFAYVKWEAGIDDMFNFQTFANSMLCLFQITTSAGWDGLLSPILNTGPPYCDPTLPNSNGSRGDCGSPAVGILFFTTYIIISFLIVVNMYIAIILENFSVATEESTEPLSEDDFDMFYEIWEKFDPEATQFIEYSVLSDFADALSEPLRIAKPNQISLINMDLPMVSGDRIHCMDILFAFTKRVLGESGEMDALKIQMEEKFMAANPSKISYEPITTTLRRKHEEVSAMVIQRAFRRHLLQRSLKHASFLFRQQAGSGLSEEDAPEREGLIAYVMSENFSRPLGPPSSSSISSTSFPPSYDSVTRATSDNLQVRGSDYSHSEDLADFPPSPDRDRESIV
Assay: Patch voltage clamp electrophysiology assay (EP), NaV1.5 in HEK-293 cells
Assay type: cell-based
Details: HEK-293, β1 coexpressed, held at -60 mV (inactivated state)
Where a name gives a salt, the structure may show the parent alone.
measurement_name: pIC50
The quantity pIC50 is defined as the negative base-10 logarithm of the molar concentration.

Cc1nn([C@@H]2CCN([C@H](C)c3cc(Cl)cc(OC(F)(F)F)c3)C2)c2cc(F)c(C(=O)NS(=O)(=O)C3CC3)cc12 [Example 22, trifluoroacetic acid salt]: 5.32

Exam item: Returns the measured pIC50 for the input compound. Input: Cc1nn(C2CCN(Cc3cc(Cl)cc(OC(F)(F)F)c3)CC2)c2cc(F)c(C(=O)NS(C)(=O)=O)cc12 [Example 4, 2,2,2-trifluoroacetate]
Marked response: 4.59

Exam item: Would you mind doing Cc1nn(C2CCC(C(C)C)CC2)c2cc(F)c(C(=O)NS(C)(=O)=O)cc12 (stereo not drawn) as well?
Marked response: 4.70

---

Biological target: NaV1.5 (Homo sapiens, UniProt Q14524)
Construct: expression vector containing the full-length cDNA coding for the desired human sodium channel α-subunit; expressed in transfected cells; host or cells: HEK-293
Assay: Patch voltage clamp electrophysiology assay (EP), NaV1.5 in HEK-293 cells
Assay type: cell-based
Settings: HEK-293, β1 coexpressed, held at -60 mV (inactivated state)
measurement_name: pIC50
The quantity pIC50 is defined as the negative base-10 logarithm of the molar concentration.

In the examples that follow, each entry is paired with its recorded pIC50.
Cc1nn([C@@H]2CCN([C@H](C)c3cc(Cl)cc(Cl)c3)C2)c2cc(F)c(C(=O)NS(=O)(=O)C3CC3)cc12 [Example 17, 2,2,2-trifluoroacetate]: 6.06
Cc1nn(C2CCN(Cc3cc(C(F)(F)F)cc(Cl)c3F)CC2)c2cc(F)c(C(=O)NS(=O)(=O)C3CC3)cc12 [Example 2, 2,2,2-trifluoroacetate]: 5.31

Shifting focus to the compound that follows.
Exam item: Returns the measured pIC50 for the input compound. Input: "Cc1nn(C2CN(Cc3cc(Cl)cc(OC(F)(F)F)c3)C2)c2cc(F)c(C(=O)NS(C)(=O)=O)cc12"
Marked response: 4.89

---

Measured pIC50 of individual entries
Target: NaV1.7 (Homo sapiens)
Construct: expression vector containing the full-length cDNA coding for the desired human sodium channel α-subunit
Experiment: Patch voltage clamp electrophysiology assay (EP), NaV1.7 in HEK-293 cells
Settings: HEK-293, β1 coexpressed, held at -60 mV (inactivated state)
Where a name gives a salt, the structure may show the parent alone.
The quantity pIC50 is defined as the negative base-10 logarithm of the molar concentration.

In the examples that follow, each entry is paired with its recorded pIC50.
Cc1nn(C2CN(Cc3cc(Cl)cc(OC(F)(F)F)c3)C2)c2cc(F)c(C(=O)NS(C)(=O)=O)cc12 [Example 14]: 6.40
Cc1nn(C2CCN(Cc3cc(C(F)(F)F)cc(Cl)c3F)CC2)c2cc(F)c(C(=O)NS(C)(=O)=O)cc12 [Example 1, 2,2,2-trifluoroacetate]: 6.17

Exam item: Returns the measured pIC50 for the input compound. Input: Cc1nn([C@@H]2CCN([C@@H](C)c3cc(Cl)cc(Cl)c3)C2)c2cc(F)c(C(=O)NS(=O)(=O)C3CC3)cc12 [Example 19, trifluoroacetic acid salt]
Marked response: 7.39
